Tested on: ATP;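 further: ATP exposure 15 min at 22 °C before imaging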
test summary: switch fluorescence ratio, 500 uM ATP over buffer (Cy3 cluster intensity, sum of 5 cycles each) (fold (ratio)); higher = stronger signal-on switching upon ATP binding; sequences stand for … in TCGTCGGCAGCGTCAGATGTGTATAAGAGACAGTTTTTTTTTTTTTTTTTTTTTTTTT…TC
test parameters: aptamer strand: ATP DNA aptamer (quencher-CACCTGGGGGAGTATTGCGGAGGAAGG + anchor), 100 nM annealed; ATP concentration: 500 uM
// NOT MET strictly below 1 in switch fluorescence ratio; MET otherwise

TAGTTCTGGG NOT MET

Could you now consider this next sequence?
Prompt: In plain terms: is recorded switch fluorescence ratio at least 1 for `CAAAACTACT` ?
Response: MET

====

Tested on: ATP;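 further: ATP exposure 15 min at 22 °C before imaging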
test summary: switch fluorescence ratio, 500 uM ATP over buffer (Cy3 cluster intensity, sum of 5 cycles each) (fold (ratio)); higher = stronger signal-on switching upon ATP binding; sequences stand for … in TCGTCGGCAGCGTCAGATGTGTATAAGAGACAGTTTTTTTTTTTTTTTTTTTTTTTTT…TC
test parameters: aptamer strand: ATP DNA aptamer (quencher-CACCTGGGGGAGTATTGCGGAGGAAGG + anchor), 100 nM annealed; ATP concentration: 500 uM
Below: a set of entries, each annotated with reported switch fluorescence ratio.
Respond using a number only.

Worked set:
AAGCTTATAT 1
TACTTGATCT 1
TTTTTTAGCG 0.99
GAAGAATCTG 1.03
GATATTAGGC 0.986

Prompt: What value of switch fluorescence ratio has been recorded for this entry: `CCGGGGGTGC`
Response: 1.24

Prompt: What value of switch fluorescence ratio has been recorded for this entry: `GCGGGGGCAA`
Response: 1.03

====

Test system: ATP;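 further: ATP exposure 15 min at 22 °C before imaging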
test summary: switch fluorescence ratio, 500 uM ATP over buffer (Cy3 cluster intensity, sum of 5 cycles each) (fold (ratio)); higher = stronger signal-on switching upon ATP binding; sequences stand for … in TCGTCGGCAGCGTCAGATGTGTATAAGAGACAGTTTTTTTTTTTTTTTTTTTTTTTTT…TC
test parameters: aptamer strand: ATP DNA aptamer (quencher-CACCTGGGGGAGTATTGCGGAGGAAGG + anchor), 100 nM annealed; ATP concentration: 500 uM
quantity kind: switch fluorescence ratio
Respond using a number only.

Worked set:
GCGGGAGGTC 1.03
TTGCTATGAA 1.01

Next:
Prompt: Under ATP: switch fluorescence ratio value of `GCGTTATTGG` ?
Response: 1.03

====

Below: a set of entries, each annotated with reported switch fluorescence ratio.
System: ATP;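 further: ATP exposure 15 min at 22 °C before imaging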
test summary: switch fluorescence ratio, 500 uM ATP over buffer (Cy3 cluster intensity, sum of 5 cycles each) (fold (ratio)); higher = stronger signal-on switching upon ATP binding; sequences stand for … in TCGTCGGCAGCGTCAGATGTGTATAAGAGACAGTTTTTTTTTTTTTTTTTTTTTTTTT…TC
test parameters: aptamer strand: ATP DNA aptamer (quencher-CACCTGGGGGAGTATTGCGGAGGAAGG + anchor), 100 nM annealed; ATP concentration: 500 uM
Respond using a number only.

Worked set:
TTAACATGTG 0.959
CTTGACAAGG 0.982
ATTCTCCATT 1.02
TGTGTAAGGC 1.03
TTGGTTGCGG 1.02
GGACAAGGGG 0.962
GGGGTCGGCT 0.974
TTCGTGGGGT 1.03
ATTGGCAAAA 1.01
TTGGTTATAG 1.01

Prompt: What value of switch fluorescence ratio has been recorded for this entry: `GAGGGGGGTG`
Response: 1

Prompt: What value of switch fluorescence ratio has been recorded for this entry: `AGAGTTATGC`
Response: 1.02
